For each entry below, report its TGI value.
System: SNB-78 CNS
Assay: NCI tumour cell line growth inhibition, 48 h

Solved entries (count: 8):
INSERT INTO assay_data (compound, measured_value) VALUES
  ('COc1cc([C@@H]2c3cc4c(cc3[C@@H](OC(=O)c3ccc(N)cc3)C3COC(=O)[C@@H]32)OCO4)cc(OC)c1O (stereo not given in full)', '> 95 µM'),
  ('O=C1c2ccccc2OP(=O)(OCC(F)(F)F)OC1(C(F)(F)F)C(F)(F)F (stereo not given)', '> 100 µM'),
  ('Nc1nc(SCc2ccc([N+](=O)[O-])cc2)nc2c1ncn2C1OC(CO)C(O)C1O (stereo not given)', '> 100 µM'),
  ('COc1cc2c(ccc3c4cc(OC)c(OC)cc4c[n+](C)c23)cc1O', '> 75 µM'),
  ('OCC1C(/C=C/c2ccoc2)ON2CCCC12 (stereo not given)', '> 100 µM'),
  ('C[C@]12CCC(=O)C=C1CC[C@@H]1C2CC[C@]2(C)Nc3c(cnn3-c3ccccc3)CC12 (stereo not given in full)', '> 100 µM'),
  ('Cc1cc2c(C)nn(Cc3ccccc3)c2c(C(N)=O)c1C', '> 100 µM'),
  ('CC(=O)NNc1nc(C)c(C(=O)/C=C/c2ccccc2Cl)s1', '> 100 µM');

Would you mind listing TGI for each of the following compounds?
1. O=C(CC(=O)C1=CNc2ccccc2S1)C(=O)Nc1ccc(Cl)cc1
2. CC(C)CC(NC(=O)OC(C)(C)C)C(=O)Nc1ccc(Nc2nc(F)nc(-c3c4ccccc4c4n3CCS4)n2)cc1 (stereo not given)

1. > 50 µM
2. 44.3 µM
